# TARGET: recombinant DDB1-CRBN (Homo sapiens, UniProt Q96SW2)
# Construct: His; made in house; host or cells: High Five insect cells (baculovirus made and propagated in SF9 cells)
# ASSAY NAME: Fluorescence polarization-based competition assay for CRBN binding
# CONDITION: 200 nM CRBN-DDB1, 20 nM pomalidomide-fluorescein tracer 16, triplicates; read-out: FP_CRBN_binding: CRBN binding affinity, EC50
Assign pEC50 to each entry below.
// returns pEC50 (minus log10 of molar concentration), number only

Challenge: For the compound shown here, CC1c2cc(F)ccc2CCN1S(=O)(=O)Oc1ccc(Nc2cccc3c2C(=O)N(C2CCC(=O)NC2=O)C3=O)cc1 (centres unmarked) [FL4-17] , give the reported pEC50.
Response given: 6.01

Challenge: Look up pEC50: CC1c2cccn2CCN1S(=O)(=O)Oc1ccc(Nc2cccc3c2C(=O)N(C2CCC(=O)NC2=O)C3=O)cc1 (centres unmarked) [FL4-19]
Response given: 6.16

Challenge: Entry CN(Cc1ccc2c(c1)OCO2)S(=O)(=O)Oc1cccc(Nc2cccc3c2C(=O)N(C2CCC(=O)NC2=O)C3=O)c1 (centres unmarked) [FL3-20] : reported pEC50 = ?
Response given: 5.80

Challenge: Query (compound): O=C1CCC(c2cccc(OS(=O)(=O)N3C[C@@H](F)[C@H](F)C3)c2)C(=O)N1 (some centres unmarked) [FL6-10] ; field requested: pEC50
Response given: 5.94

Challenge: // lookup pEC50 for O=C1CCC(N2C(=O)c3cccc(Nc4ccc(OS(=O)(=O)N5CCOCC5)cc4)c3C2=O)C(=O)N1 (centres unmarked) [FL4-5]
Response given: 6.19
